system: Fibroblast; assay: Multiplex assay against human fibroblast; assay type: toxicity, cell-based; settings: 48 h, 1 µM, compound concentration 1 uM, replicate 1
measurementLabel: Population Healthy Nuclei (%)
Give just the number in %; leave the unit off.

Record excerpt, results attached:
| compound | Population Healthy Nuclei (%) |
| --- | --- |
| CNc1nc(NCc2ccc(NS(C)(=O)=O)cc2Cl)cc(-c2ccccn2)n1 | 63 |
| Cc1nc(-c2ccc(-c3ccc(C(=O)N4CCc5cc6c(cc54)C4(CCN(C)CC4)CO6)cc3)c(C)c2)no1 | 46 |

Q. Query (compound): CN1CCCC(n2nc(Cc3ccc(Cl)cc3)c3ccccc3c2=O)CC1.Cl (stereo not given) [AZELASTINE HYDROCHLORIDE] ; field requested: Population Healthy Nuclei (%)
A. 41

Q. Follow-up entry: CN(C)CC#Cc1ccc(OCCCc2sc(N3CCc4cccc(C(=O)Nc5nc6ccccc6s5)c4C3)nc2C(=O)O)c(F)c1
A. 34

Q. Follow-up entry: CC(C)(O)CNc1ncc(-c2ccnc(Nc3ccnc(Cl)c3)n2)c(CC2CC2)n1
A. 46

Q. Follow-up entry: COc1cccc([C@@H](C)NCCCc2ccccc2Cl)c1.Cl [TECALCET HYDROCHLORIDE]
A. 60

====

tested on: HEK-293T; test: Multiplex assay against HEK293T; format: toxicity, cell-based; conditions: human, 12 h, 10 µM, compound concentration 10 uM, replicate 1
measurementLabel: Total Cell Count

Record excerpt, results attached:
| compound | Total Cell Count |
| --- | --- |
| CN(C)C(=O)N[C@H]1CC[C@H](CCN2CCN(c3cccc(Cl)c3Cl)CC2)CC1.Cl [CARIPRAZINE HYDROCHLORIDE] | 285 |
| CN1CCN(c2ccc(OC(F)(F)F)c(Nc3ncc4c(n3)-c3c(c(C(N)=O)nn3CCO)CC4)c2)CC1 [ONVANSERTIB] | 269 |
| CCN(CC)CCCCNc1ncc2cc(-c3cc(OC)cc(OC)c3)c(NC(=O)NC(C)(C)C)nc2n1 [PD-173074] | 693 |
| Cc1cc(C)cc(-c2cnc3cc(Cl)c(-c4cccc(O)c4)cc3c2OCCCN)c1 | 226 |
| Cc1nc(-c2ccc(-c3ccc(C(=O)N4CCc5cc6c(cc54)C4(CCN(C)CC4)CO6)cc3)c(C)c2)no1 [SB-224289] | 320 |

Q. Query (compound): Cc1nc(Nc2n[nH]c3c2CN(C(=O)N[C@H](CN(C)C)c2ccccc2)C3(C)C)c2sccc2n1 [PF-03758309] ; field requested: Total Cell Count
A. 604

Q. Follow-up entry: c1cn2cc(-c3ccc4cn[nH]c4c3)nc(Nc3ccc(N4CCOCC4)cc3)c2n1 [ENTOSPLETINIB]
A. 1068

====

tested on: U2OS; test: Multiplex assay against U2OS; type: toxicity, cell-based; conditions: human, 24 h, 10 µM, compound concentration 10 uM, replicate 1
So basically: Population Hoechst High Intensity Objects (%) at 8% or higher? That is condition met. Lower than 8%? That is condition not met.

Some solved cases for reference:
| compound | discreteLabel |
| --- | --- |
| Cc1nc(Nc2n[nH]c3c2CN(C(=O)N[C@H](CN(C)C)c2ccccc2)C3(C)C)c2sccc2n1 | condition met |
| CN1CCN(c2ccc(OC(F)(F)F)c(Nc3ncc4c(n3)-c3c(c(C(N)=O)nn3CCO)CC4)c2)CC1 | condition not met |
| CN1CCC[C@@H]1CCO[C@](C)(c1ccccc1)c1ccc(Cl)cc1.O=C(O)/C=C/C(=O)O [CLEMASTINE FUMARATE] | condition met |

Q. Confirm if Population Hoechst High Intensity Objects (%) reported for the compound CC(C)NCC(O)COc1ccc(CCOCC2CC2)cc1.Cl (stereo unspecified) [BETAXOLOL HYDROCHLORIDE] is 8% or above.
A. condition not met

====

system: HEK-293T; experiment: Multiplex assay against HEK293T; type: toxicity, cell-based; settings: human, 48 h, 10 µM, compound concentration 10 uM, replicate 2
measurementLabel: Population Mitotic Cells (%)
Give just the number in %; leave the unit off.

| compound | Population Mitotic Cells (%) |
| --- | --- |
| Cc1cc(C)cc(-c2cnc3cc(Cl)c(-c4cccc(O)c4)cc3c2OCCCN)c1 | 3 |

Q. Request - read-out Population Mitotic Cells (%) | tested on HEK-293T | compound CN(C)CC#Cc1ccc(OCCCc2sc(N3CCc4cccc(C(=O)Nc5nc6ccccc6s5)c4C3)nc2C(=O)O)c(F)c1 [A-1155463]
A. 91

====

test system: U2OS; test: Multiplex assay against U2OS; format: toxicity, cell-based; settings: human, 12 h, 10 µM, compound concentration 10 uM, replicate 1
measurementLabel: Population Hoechst High Intensity Objects (%)
Just the number plus its unit, please.

Q. Query (molecule): OC1(c2ccc(Cl)cc2)CCN(Cc2c[nH]c3ccccc23)CC1 ; field requested: Population Hoechst High Intensity Objects (%)
A. 5%

Q. Follow-up entry: CC(C)NCC(O)COc1ccc(CCOCC2CC2)cc1.Cl (stereo not given) [BETAXOLOL HYDROCHLORIDE]
A. 5%

Q. Follow-up entry: COc1cc2nccc(Oc3ccc(NC(=O)Nc4cc(C)on4)c(Cl)c3)c2cc1OC.O
A. 11%

Q. Follow-up entry: Cc1csc2c(N[C@@H](C)CN3CCN(S(=O)(=O)c4ccc(Cl)c(Cl)c4)CC3)ncnc12
A. 9%

Q. Follow-up entry: Cn1cc(-c2[nH]c3cc(NC(=O)[C@H](N)C4CCCCC4)cc4c3c2C=NNC4=O)cn1
A. 6%

====

test system: Fibroblast; test: Incucyte cell viability with human fibroblast; format: toxicity, cell-based; settings: 18 h, 10 µM, compound concentration 10 uM, replicate number 2, timepoint 18 hours; also: filed as whole numbers so only -1 and 0 and 1 occur
measurementLabel: Growth Rate
Number only, please.

| compound | Growth Rate |
| --- | --- |
| CN(C)S(=O)(=O)c1ccc(NC(=S)N2CCC(C(O)(c3ccccc3)c3ccccc3)CC2)cc1 | 1 |

Q. Query (compound): O=C(O)[C@@H]1[C@@H](Cn2nnc3ccccc3c2=O)CC[C@H]1C(=O)c1ccc(OCCC2CCOCC2)cc1 [BAY-694] ; field requested: Growth Rate
A. 0

Q. Follow-up entry: CN(C)c1ncnc(-c2ccc3nc(Nc4cc(CN5CCN(C(=O)CC(F)(F)F)CC5)ccn4)[nH]c3c2)c1Cl [BAY-440]
A. 0

====

test system: U2OS; experiment: Multiplex assay against U2OS; assay type: toxicity, cell-based; conditions: human, 24 h, 1 µM, compound concentration 1 uM, replicate 1
measurementLabel: Population Tubulin-Different-Phenotype (%)
Give just the number in %; leave the unit off.

Record excerpt, results attached:
| molecule | measureUnit | observed |
| --- | --- | --- |
| CC(C)(O)CNc1ncc(-c2ccnc(Nc3ccnc(Cl)c3)n2)c(CC2CC2)n1 | % | 10 |
| Cc1nc(-c2cn3c(n2)-c2ccc(-c4cnn(C(C)(C)C(N)=O)c4)cc2OCC3)n(C(C)C)n1 [TASELISIB] | % | 12 |
| C[C@@]1(C(=O)Nc2ccc(F)nc2)CCCN1c1nc(Nc2cc(C3CC3)n[nH]2)c2cccn2n1 [BMS-754807] | % | 78 |
| Cl.N#Cc1ccc2[nH]cc(CCCCN3CCN(c4ccc5oc(C(N)=O)cc5c4)CC3)c2c1 [VILAZODONE HYDROCHLORIDE] | % | 21 |
| Cc1c(-c2ccc(O)cc2)n(Cc2ccc(OCCN3CCCCCC3)cc2)c2ccc(O)cc12 [BAZEDOXIFENE] | % | 11 |

Q. Query (molecule): Cc1csc2c(N[C@@H](C)CN3CCN(S(=O)(=O)c4ccc(Cl)c(Cl)c4)CC3)ncnc12 ; field requested: Population Tubulin-Different-Phenotype (%)
A. 45

Q. Follow-up entry: NC(=O)Nc1cc(-c2cccc(F)c2)sc1C(=O)N[C@H]1CCCNC1 [AZD-7762]
A. 35

Q. Follow-up entry: COc1ncc(-c2ccc3nccc(-c4ccnnc4)c3c2)cc1NS(=O)(=O)c1ccc(F)cc1F [OMIPALISIB]
A. 14

====

system: HEK-293T; assay: Multiplex assay against HEK293T; assay type: toxicity, cell-based; conditions: human, 24 h, 1 µM, compound concentration 1 uM, replicate 2
measurementLabel: Population Membrane Permeable-Phenotype (%)
Give just the number in %; leave the unit off.

Record excerpt, results attached:
| molecule | observed |
| --- | --- |
| COc1cc(-n2cnc3cc(-c4ccc(Cl)cc4)sc3c2=O)ccc1OCCN1CCCC1 | 7 |
| C=CC(=O)Nc1cccc(C(=O)Nc2ccc(Nc3cc(-c4[nH]c(SC)nc4C)ccn3)cc2)c1 | 10 |
| Cc1nc(Nc2n[nH]c3c2CN(C(=O)N[C@H](CN(C)C)c2ccccc2)C3(C)C)c2sccc2n1 [PF-03758309] | 4 |

Q. Query (molecule): COc1ncc(-c2ccc3nccc(-c4ccnnc4)c3c2)cc1NS(=O)(=O)c1ccc(F)cc1F [OMIPALISIB] ; field requested: Population Membrane Permeable-Phenotype (%)
A. 0
